Data credit: patent US12559471B2

ASSAY TARGET: UniProt:P28223
EXPERIMENT DESCRIPTION: Competitive 5-HT2A receptor binding assay (3H-Ketanserin, CHO-5-HT2A membrane)
Procedure: 1) Preparation of CHO-5-HT2A Receptor Membrane The precipitate was collected, and the supernatant was discarded. The solution B was added into the precipitate. […] The supernatant was carefully discarded, and the solution B was added into the precipitate again. […] The precipitate obtained was stored at −80° C. 1) Competitive 5-HT2A Receptor Binding Assay Step 2: 100 μL of the membrane preparation was added into each reaction tube. […]
OBSERVED PROPERTY: pKi
# pKi = -log10(concentration in molar units)

The molecule identified as CC(C)COc1ccc(CN2Cc3ccc(F)cc3CN(C3CCN(C)C3)C2=O)cc1 (stereo not shown) registered its pKi at 8.77

====

ASSAY TARGET: 5-HT2A receptor (Homo sapiens (Human))
Sequence (P28223 whole entry): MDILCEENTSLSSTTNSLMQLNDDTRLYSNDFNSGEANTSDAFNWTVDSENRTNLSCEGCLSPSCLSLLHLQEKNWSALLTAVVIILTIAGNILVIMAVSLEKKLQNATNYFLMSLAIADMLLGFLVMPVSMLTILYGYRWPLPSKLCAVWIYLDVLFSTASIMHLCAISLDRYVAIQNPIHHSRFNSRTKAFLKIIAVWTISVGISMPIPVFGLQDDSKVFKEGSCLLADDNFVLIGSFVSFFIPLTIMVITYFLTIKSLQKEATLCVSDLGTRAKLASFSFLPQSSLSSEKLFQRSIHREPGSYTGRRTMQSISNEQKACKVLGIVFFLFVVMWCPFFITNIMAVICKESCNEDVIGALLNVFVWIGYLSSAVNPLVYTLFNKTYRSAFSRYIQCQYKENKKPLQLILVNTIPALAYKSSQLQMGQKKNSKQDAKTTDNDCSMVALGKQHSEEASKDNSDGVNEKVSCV
EXPERIMENT DESCRIPTION: Competitive 5-HT2A receptor binding assay (3H-Ketanserin, CHO-5-HT2A membrane)
CONDITION SUMMARY: ratio of 5-HT2C Ki to 5-HT2A Ki
Cut-off 9 on 2C/2A, inclusive. At or above means True; below means False.

Is the recorded value of 2C/2A equal to or greater than 9 for this molecule? CC(C)COc1ccc(CN2Cc3ccc(F)cc3CN([C@H]3CCN(C)C[C@H]3F)C2=O)cc1 [NH-K-A19014-0] False

Check this molecule for 2C/2A at or above 9: CC(C)COc1ccc(CN2Cc3ccc(F)cc3CN(C3CCN(C)CC3)C2=O)cc1 [NH-K-A19005] False

Hello, I need to know if CC(C)COc1ccc(CN2Cc3cc(Cl)ccc3CN(C3CCN(C)CC3)C2=O)cc1 [NH-K-A190017] has measured 2C/2A not below 9. Thanks! True

Does the reported 2C/2A for CC(C)COc1ccc(CN2Cc3cc(F)ccc3CN(C3CCN(C)CC3)C2=O)cc1 [NH-K-A19001] fall at or above the 9 mark? True

====

ASSAY TARGET: hERG potassium channel (Homo sapiens (Human))
Sequence (Q12809 whole entry): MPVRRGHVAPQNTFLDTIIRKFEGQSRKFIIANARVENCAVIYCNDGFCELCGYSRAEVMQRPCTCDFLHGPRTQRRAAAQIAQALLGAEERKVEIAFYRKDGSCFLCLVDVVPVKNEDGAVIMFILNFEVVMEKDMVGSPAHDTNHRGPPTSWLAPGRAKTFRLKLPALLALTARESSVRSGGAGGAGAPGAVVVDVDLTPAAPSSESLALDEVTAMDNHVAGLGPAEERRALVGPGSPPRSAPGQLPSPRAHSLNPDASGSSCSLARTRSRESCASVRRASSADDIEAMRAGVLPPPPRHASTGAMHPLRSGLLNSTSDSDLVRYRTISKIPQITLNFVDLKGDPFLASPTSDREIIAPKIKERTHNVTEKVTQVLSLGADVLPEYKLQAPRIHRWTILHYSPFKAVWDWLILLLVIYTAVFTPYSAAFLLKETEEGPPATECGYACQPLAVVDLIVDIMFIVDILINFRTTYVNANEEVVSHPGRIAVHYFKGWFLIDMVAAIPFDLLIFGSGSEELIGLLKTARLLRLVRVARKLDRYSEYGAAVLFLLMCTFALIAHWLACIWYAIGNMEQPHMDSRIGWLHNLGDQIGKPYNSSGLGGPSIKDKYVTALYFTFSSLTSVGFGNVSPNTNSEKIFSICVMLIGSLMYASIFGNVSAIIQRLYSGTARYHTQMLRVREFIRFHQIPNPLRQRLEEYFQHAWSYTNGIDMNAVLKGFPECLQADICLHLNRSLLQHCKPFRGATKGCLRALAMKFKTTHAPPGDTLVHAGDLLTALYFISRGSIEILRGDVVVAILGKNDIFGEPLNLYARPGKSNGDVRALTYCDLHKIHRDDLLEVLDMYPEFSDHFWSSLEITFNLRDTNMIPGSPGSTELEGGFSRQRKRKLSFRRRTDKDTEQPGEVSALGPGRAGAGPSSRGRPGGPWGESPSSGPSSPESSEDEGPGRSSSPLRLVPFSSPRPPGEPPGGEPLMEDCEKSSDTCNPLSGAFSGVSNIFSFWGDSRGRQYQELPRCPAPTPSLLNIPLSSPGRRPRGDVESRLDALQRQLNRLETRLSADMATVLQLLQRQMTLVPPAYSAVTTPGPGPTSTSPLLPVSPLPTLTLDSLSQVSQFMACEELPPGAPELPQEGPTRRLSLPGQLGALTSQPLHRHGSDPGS
EXPERIMENT DESCRIPTION: In vitro hERG assay, whole-cell patch clamp in HEK-293 cells
Assay type: cell-based
CONDITION SUMMARY: HEK-293 cells stably expressing hERG, room temperature
OBSERVED PROPERTY: IC50 (nM)
Field format: number, assumed nM, no unit text.

CN1CCC(N2Cc3cc(F)ccc3CN(Cc3ccc(OC4CC4)cc3)C2=O)CC1 :: 1190
CC(C)COc1ccc(CN2Cc3cc(F)ccc3CN(C3CCN(C)CC3)C2=O)cc1 :: 260

The value of IC50 measured for the compound CC(C)COc1ccc(CN2Cc3ccc(F)cc3CN(C3CCN(C)CC3)C2=O)cc1 turned out to be 3170

====

The entries below come with measured ED50 values attached.
Test system: MK-801-induced high activity behavior of mice
EXPERIMENT DESCRIPTION: Dizocilpine (MK-801)-induced high activity test in mice
Type: in vivo
CONDITION SUMMARY: Mus musculus, 1 h, intragastric, MK-801 0.3 mg/kg i.p., 60 min, read-out: ED50 for inhibiting the MK-801-induced high activity behavior
Reply with just the number (in mg/kg).

Check out these entries, answers already filled in.
CN1CCC(N2Cc3cc(F)ccc3CN(Cc3ccc(OC4CC4)cc3)C2=O)CC1 :: 0.265
CC(C)COc1ccc(CN2Cc3ccc(F)cc3CN(C3CCN(C)CC3)C2=O)cc1 :: 1.01
CC(C)Oc1ccc(CN2Cc3ccc(F)cc3CN(C3CCN(C)CC3)C2=O)cc1F :: 3.73

Now turn to the next compound.
compound CC(C)COc1ccc(CNC(=O)N(Cc2ccc(F)cc2)C2CCN(C)CC2)cc1 [Pimavanserin, reference compound] , ED50 observed: 3.29
